// provenance: ChEMBL document CHEMBL1777688

# tested-target: Transient receptor potential cation channel subfamily V member 1 (Rattus norvegicus)
# experiment-notes: Blockade of rat recombinant TRPV1 expressed in xenopus oocytes assessed as inhibition of capsaicin-induced whole-cell current at 10 uM at holding potential of -60 mV by electrophysiological assay relative to control
# Assay type: cell-based
# assay-setup: Oocyte

smiles-record | inhibition
NC(=O)[C@H](Cc1c(Sc2ccccc2[N+](=O)[O-])[nH]c2ccccc12)NC(=O)[C@@H](N)CCCN=C(N)N | 62.8%
C[N+](C)(C)CCCC[C@H](N)C(=O)N[C@@H](Cc1c(Sc2ccccc2[N+](=O)[O-])[nH]c2ccccc12)C(N)=O | 36.7%
NC(=O)[C@H](Cc1c(Sc2ccccc2[N+](=O)[O-])[nH]c2ccccc12)N1C(=O)N[C@@H](CCCN=C(N)N)C1=O | 50.2%
NCCCC[C@H](N)C(=O)N[C@@H](Cc1c(Sc2ncccc2[N+](=O)[O-])[nH]c2ccccc12)C(N)=O | 17%

* * *

# tested-target: Glutamate NMDA receptor; GRIN1/GRIN2A (Homo sapiens) (UniProt Q05586+Q12879)
# experiment-notes: Blockade of human recombinant NR1/NR2A expressed in xenopus oocytes assessed as inhibition of L-glutamate/glycine-induced whole-cell current at 10 uM at holding potential of -60 mV by electrophysiological assay relative to control
# Format: cell-based
# assay-setup: Oocyte

smiles-record | uom | inhibition
CC(=O)N[C@@H](CCCN=C(N)N)C(=O)N[C@@H](Cc1c(Sc2ccccc2[N+](=O)[O-])[nH]c2ccccc12)C(N)=O | % | 25.8
CC(=O)N[C@@H](CCCCN=C(N1CCCC1)N1CCCC1)C(=O)N[C@@H](Cc1c(Sc2ncccc2[N+](=O)[O-])[nH]c2ccccc12)C(N)=O | % | 30.2
NC[C@H](N)C(=O)N[C@@H](Cc1c(Sc2ccccc2[N+](=O)[O-])[nH]c2ccccc12)C(N)=O | % | 24
NC(=O)[C@H](Cc1c(Sc2ccccc2[N+](=O)[O-])[nH]c2ccccc12)N1C(=O)N[C@@H](CCN=C(N2CCCC2)N2CCCC2)C1=O | % | 12
NC(=O)[C@H](Cc1c(Sc2ncccc2[N+](=O)[O-])[nH]c2ccccc12)NC(=O)[C@@H](N)CCCN=C(N)N | % | 20.6
CC(=O)N[C@@H](CN=C(N1CCCC1)N1CCCC1)C(=O)N[C@@H](Cc1c(Sc2ccccc2[N+](=O)[O-])[nH]c2ccccc12)C(N)=O | % | 30.3
CC(=O)N[C@@H](CCCN=C(N)N)C(=O)N[C@@H](Cc1c(Sc2ncccc2[N+](=O)[O-])[nH]c2ccccc12)C(N)=O | % | 26.3
CC(=O)N[C@@H](CCCCN=C(N1CCCC1)N1CCCC1)C(=O)N[C@@H](Cc1c(Sc2ccccc2[N+](=O)[O-])[nH]c2ccccc12)C(N)=O | % | 6.4
NC[C@@H]1NC(=O)N([C@@H](Cc2c(Sc3ccccc3[N+](=O)[O-])[nH]c3ccccc23)C(N)=O)C1=O | % | 18.4
NCCCC[C@@H]1NC(=O)N([C@@H](Cc2c(Sc3ncccc3[N+](=O)[O-])[nH]c3ccccc23)C(N)=O)C1=O | % | 26.8
CC(=O)N[C@@H](CCCC[N+](C)(C)C)C(=O)N[C@@H](Cc1c(Sc2ccccc2[N+](=O)[O-])[nH]c2ccccc12)C(N)=O | % | 32.2
CC(=O)N[C@@H](CCCCN=C(N(C)C)N(C)C)C(=O)N[C@@H](Cc1c(Sc2ncccc2[N+](=O)[O-])[nH]c2ccccc12)C(N)=O | % | 20.6
NCC[C@H](N)C(=O)N[C@@H](Cc1c(Sc2ccccc2[N+](=O)[O-])[nH]c2ccccc12)C(N)=O | % | 29.7
NC(=O)[C@H](Cc1c(Sc2ncccc2[N+](=O)[O-])[nH]c2ccccc12)N1C(=O)N[C@@H](CCCCN=C(N2CCCC2)N2CCCC2)C1=O | % | 12.9
NCC[C@@H]1NC(=O)N([C@@H](Cc2c(Sc3ccccc3[N+](=O)[O-])[nH]c3ccccc23)C(N)=O)C1=O | % | 16
CN(C)C(=NCCCC[C@@H]1NC(=O)N([C@@H](Cc2c(Sc3ccccc3[N+](=O)[O-])[nH]c3ccccc23)C(N)=O)C1=O)N(C)C | % | 9.3
CN(C)C(=NCCCC[C@H](N)C(=O)N[C@@H](Cc1c(Sc2ccccc2[N+](=O)[O-])[nH]c2ccccc12)C(N)=O)N(C)C | % | 69.7
NC(=O)[C@H](Cc1c(Sc2ncccc2[N+](=O)[O-])[nH]c2ccccc12)N1C(=O)N[C@@H](CCCN=C(N)N)C1=O | % | 24.2
NCCCC[C@@H]1NC(=O)N([C@@H](Cc2c(Sc3ccccc3[N+](=O)[O-])[nH]c3ccccc23)C(N)=O)C1=O | % | 10.5
